RUN DESCRIPTION: pH stability study
Assay type: physicochemical
CONDITION SUMMARY: pH 9 buffer, 20° C., 120 min
Quick reference: % Remaining of the listed items.
Field: numeric (%). Do not append units.

Problem: Given the molecule O=C(CCc1cccnc1)Oc1c(Cl)cccc1Cl [Compound A] , what is its reported % Remaining?
Solution: 87.81

---
Problem: Given the molecule O=C(CCc1cccnc1)Oc1c(F)cccc1F [Compound B] , what is its reported % Remaining?
Solution: 38.67

Problem: Continue with O=C(CCc1cccnc1)Oc1c(F)c(F)cc(F)c1F [Compound C]
Solution: 0

Problem: Continue with O=C(CCc1cccnc1)Oc1ccc([N+](=O)[O-])cc1 [Compound D, 4-Nitrophenyl-3-(pyridin-3-yl)propanoate]
Solution: 23.66

Problem: Continue with O=C(CCc1cccnc1)ON1C(=O)CCC1=O [Compound E]
Solution: 0

* * *

RUN DESCRIPTION: DMSO stability study
Format: physicochemical
CONDITION SUMMARY: 30 min
MEASURE NAME: % Active Ester Remaining in DMSO at 22 ± 2° C. (%)
Field: numeric (%). Do not append units.

Field: example entries. Status: answers known.
Problem: Given the compound O=C(CCc1cccnc1)ON1C(=O)CCC1=O , what is its reported % Active Ester Remaining in DMSO at 22 ± 2° C.?
Solution: 97.13

Problem: Continue with O=C(CCc1cccnc1)Oc1c(F)cccc1F
Solution: 99.81

Problem: Continue with O=C(CCc1cccnc1)Oc1c(Cl)cccc1Cl
Solution: 99.95

---
Problem: Given the compound O=C(CCc1cccnc1)Oc1c(F)c(F)cc(F)c1F , what is its reported % Active Ester Remaining in DMSO at 22 ± 2° C.?
Solution: 94.71

Problem: Continue with O=C(CCc1cccnc1)Oc1ccc([N+](=O)[O-])cc1 [Compound D, 4-Nitrophenyl-3-(pyridin-3-yl)propanoate]
Solution: 98.99

* * *

RUN DESCRIPTION: Nucleophilic reactivity study with L-Lysine
CONDITION SUMMARY: L-Lysine 5 equiv, 15 min, 22±2° C.
Quick reference: % Active Ester Remaining of the listed items.
Answer format reminder: number followed by unit.

Problem: Given the molecule O=C(CCc1cccnc1)Oc1ccc([N+](=O)[O-])cc1 [Compound D, 4-Nitrophenyl-3-(pyridin-3-yl)propanoate] , what is its reported % Active Ester Remaining?
Solution: 8.34%

Problem: Continue with O=C(CCc1cccnc1)Oc1c(Cl)cccc1Cl
Solution: 60.44%

Problem: Continue with O=C(CCc1cccnc1)Oc1c(F)cccc1F
Solution: 0.20%

Problem: Continue with O=C(CCc1cccnc1)Oc1c(F)c(F)cc(F)c1F
Solution: 0%

Problem: Continue with O=C(CCc1cccnc1)ON1C(=O)CCC1=O
Solution: 0%

* * *

RUN DESCRIPTION: pH stability study
Type: physicochemical
CONDITION SUMMARY: pH 5 buffer, 20° C., 120 min
MEASURE NAME: % Remaining (%)
Field: numeric (%). Do not append units.

Field: example entries. Status: answers known.
Problem: Given the molecule O=C(CCc1cccnc1)Oc1c(F)cccc1F , what is its reported % Remaining?
Solution: 98.27

Problem: Continue with O=C(CCc1cccnc1)ON1C(=O)CCC1=O
Solution: 13.81

Problem: Continue with O=C(CCc1cccnc1)Oc1ccc([N+](=O)[O-])cc1 [Compound D, 4-Nitrophenyl-3-(pyridin-3-yl)propanoate]
Solution: 98.63

Problem: Continue with O=C(CCc1cccnc1)Oc1c(Cl)cccc1Cl
Solution: 100

# evaluate next
Problem: Given the molecule O=C(CCc1cccnc1)Oc1c(F)c(F)cc(F)c1F , what is its reported % Remaining?
Solution: 65.20

Source: patent US20240139333A1
